- Tested on: NCI-H23 lung
- Assay comment: NCI-60 one-dose screen, 48 h (100 = growth as untreated, 0 = no growth, -100 = all killed)
- Test settings: 10 µM unless noted
This is part of a sample that, as a whole, favours compounds with a hit. Of some 83,000 tested, about 20% had one in any assay.
Recorded growth by entry

{"columns": ["Structure smiles", "Uom", "growth"],
 "data": [
  ["COc1ccc(/C(C)=C(\\c2ccc(OCCN3CCOCC3)cc2)c2ccc(OC(=O)Cc3ccccc3)cc2)cc1", "%", 95.1],
  ["O=C(O)C(Cl)(Cl)C(F)(F)F", "%", 100],
  ["Cc1cc(-c2nc3cc(F)ccc3[se]2)cc(F)c1N", "%", 59.5]
]}

----------
- Test system: SK-MEL-5 melanoma
- Assay comment: NCI-60 one-dose screen, 48 h (100 = growth as untreated, 0 = no growth, -100 = all killed)
- Test settings: 10 µM unless noted
- Experimental: Growth inhibition of the SK-MEL-5 human tumor cell line is measured as a screen for anti-cancer activity. Cells are grown in 96 well plates and exposed to the test compound for 48 hours. Compounds are tested at a single concentration, which is 10^-5 M for most compounds. The reported endpoint is percent growth (GI% or GIPRCNT), where numbers from 0 - 100% represent growth inhibition, and numbers from -100% - 0 represent cell death. For example, a value of 40 represents 60% growth inhibition. […]
This is part of a sample that, as a whole, favours compounds with a hit. Of some 83,000 tested, about 20% had one in any assay.
Reported endpoint: growth (%)

{"columns": ["Structure smiles", "Measurement"],
 "data": [
  ["CN[C@]1(c2ccccc2Cl)CCCC[C@H]1NCCCN1CCN(C)CC1", 97.7],
  ["CC[C@H](NC(=O)[C@H]1CCCCN1C)C(=O)N(C)[C@H](C[C@@H](OC(C)=O)c1nc(C(=O)N[C@@H](Cc2ccccc2)C[C@H](C)C(=O)O)cs1)C(C)C", -40.3],
  ["COc1ccc(C2=N[C@@H](Cc3ccccc3)C(=O)Nc3ccsc32)cc1", 34.9],
  ["COC(=O)C12CC(NC(=O)c3csc([C@@H](C[C@H](C(C)C)N(C)C(=O)[C@@H](NC(=O)[C@H]4CCCCN4C)C(C)C)OC(C)=O)n3)(C1)C2", -38.8]
]}

----------
- Tested on: OVCAR-3 ovarian
- Assay comment: NCI-60 one-dose screen, 48 h
- Test settings: 10 µM unless noted
The panel holds about 83,000 compounds, 20% with a hit somewhere; the sample as a whole holds those more often. Activity calls are given as the source filed them. Rule for the calls: active = growth percent below 10; inactive = the rest.
Outcomes: 1 (yes) (active), 0 (no) (inactive)

{"columns": ["Molecule", "Assayed target", "Group"],
 "data": [
  ["CC(C)(C)C(=O)OCOP(=O)(NCc1ccccc1)C1CCCN(O)C1=O (stereo not drawn)", "OVCAR-3 ovarian", "1 (yes)"],
  ["O=C(CC1(O)C(=O)N(Cc2ccccc2)c2ccc(Br)cc21)c1ccc(C(=O)NCC2CCC3(CC2)OOC2(CCCCC2)OO3)cc1 (stereo not drawn)", "OVCAR-3 ovarian", "1 (yes)"],
  ["O=C(Nc1ccc(Cl)cc1)Nc1nccs1", "OVCAR-3 ovarian", "1 (yes)"],
  ["CO[C@H]1CC[C@@]2(C)C(=CC[C@@H]3[C@@H]2CC[C@]2(C)C(=O)C(=O)C[C@@H]32)C1", "OVCAR-3 ovarian", "0 (no)"],
  ["CN1C(=O)C(=Cc2cn(Cc3ccccc3)c3ccccc23)C(=O)N(C)C1=O", "OVCAR-3 ovarian", "0 (no)"],
  ["C[C@]12CCc3sc(NCCc4ccccc4)nc3C1=CC[C@@H]1[C@@H]2CC[C@]2(C)C(=O)CC[C@@H]12", "OVCAR-3 ovarian", "1 (yes)"],
  ["COc1ccc([As]=[As]c2ccc(OC)c(NCS(=O)(=O)O)c2)cc1NCS(=O)(=O)O (stereo not drawn)", "OVCAR-3 ovarian", "1 (yes)"],
  ["COC(=O)[C@@H](C)C[C@H](Cc1ccccc1)NC(=O)c1csc(CC[C@H](C(C)C)N(C)C(=O)[C@@H](NC(=O)[C@H]2CCCCN2C)C(C)C)n1", "OVCAR-3 ovarian", "1 (yes)"]
]}
